Collected pKd values appear next to each entry.
system.name: T1, recombinant human TIGIT (human, UniProt Q495A1 22-141, limits assumed)
T1 construct: recombinant human TIGIT used in Carterra SPR; also called hTIGIT
T1 sequence (looked up): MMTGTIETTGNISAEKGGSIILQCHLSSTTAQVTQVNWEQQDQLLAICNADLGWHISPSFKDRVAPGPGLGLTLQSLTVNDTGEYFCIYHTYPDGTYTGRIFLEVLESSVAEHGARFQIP
test.name: SPR Carterra, average
A value of pKd is the negative decimal logarithm of a concentration given in moles per litre.

[[record]]
binder = "TIGIT-SC67 (Fc fusion, VHH-Fc fusion in assay) VHH: EVQLVESGGGLVQPGGSLRLSCAASGFTFDRSWMGWFRQAPGKEREWVSTIYSNGTPAYADSVKGRFTISADNSKNTAYLQMNSLKPEDTAVYYCARRGLPSYSYGMDVWGQGTLVTVSS"
quantitative_readout = 7.74

[[record]]
binder = "TIGIT-SC93 (Fc fusion, VHH-Fc fusion in assay) VHH: EVQLVESGGGLVQPGGSLRLSCAASSRTVSSHAMGWFRQAPGKEREFVAAISWSGVTTYYADSVKGRFTISADNSKNTAYLQMNSLKPEDTAVYYCARWRSIWSGYDDYYYMDVWGQGTLVTVSS"
quantitative_readout = 7.30


Data request: Sample TIGIT-SC57 (Fc fusion, VHH-Fc fusion in assay) VHH: EVQLVESGGGLVQPGGSLRLSCAASGNTFSGGFMGWFRQAPGKEREWVASVLRGGYTWYADSVKGRFTISADNSKNTAYLQMNSLKPEDTAVYYCTTYRGWGQGTLVTVSS — what was its pKd?
Data returned: 7.60

Reference source: patent US20260184782A1
